# measured target: HPK1 protein (Homo sapiens)
# Construct: Frozen human PBMC were purchased from Shanghai OribioTech; host or cells: human PBMC
# Sequence (Q92918 whole entry): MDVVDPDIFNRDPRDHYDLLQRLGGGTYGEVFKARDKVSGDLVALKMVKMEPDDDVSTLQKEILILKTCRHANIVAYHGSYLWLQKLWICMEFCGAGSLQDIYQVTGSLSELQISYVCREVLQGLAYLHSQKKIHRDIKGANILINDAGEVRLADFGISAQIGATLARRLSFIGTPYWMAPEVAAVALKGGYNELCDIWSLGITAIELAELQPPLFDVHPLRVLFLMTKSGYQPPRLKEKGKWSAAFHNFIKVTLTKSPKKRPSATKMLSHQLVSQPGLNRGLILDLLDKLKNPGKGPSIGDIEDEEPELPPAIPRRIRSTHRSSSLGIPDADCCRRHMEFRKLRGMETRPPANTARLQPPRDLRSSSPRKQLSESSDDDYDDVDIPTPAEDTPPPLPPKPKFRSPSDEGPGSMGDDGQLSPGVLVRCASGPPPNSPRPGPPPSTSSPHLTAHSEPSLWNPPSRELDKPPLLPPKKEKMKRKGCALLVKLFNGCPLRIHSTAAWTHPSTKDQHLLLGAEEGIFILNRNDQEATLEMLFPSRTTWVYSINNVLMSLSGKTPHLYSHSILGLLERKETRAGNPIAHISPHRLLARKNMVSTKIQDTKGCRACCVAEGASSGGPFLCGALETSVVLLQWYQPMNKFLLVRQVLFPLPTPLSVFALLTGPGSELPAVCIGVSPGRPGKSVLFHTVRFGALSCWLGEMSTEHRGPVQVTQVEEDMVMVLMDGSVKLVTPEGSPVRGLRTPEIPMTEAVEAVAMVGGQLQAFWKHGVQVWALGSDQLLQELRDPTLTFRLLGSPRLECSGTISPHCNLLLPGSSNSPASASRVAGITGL
# assay name: HPK1 protein degradation in human PBMC (western blot)
# Type: cell-based
# setup conditions: 18 h incubation
recorded metric: Dmax (%)
Report the figure in % without appending any unit label.

Reference set (5 entries):
| compound | measured target | readout value |
| --- | --- | --- |
| O=C1CCC(N2C(=O)c3cc(F)c(N4CCN(CCCN5CCN(c6cccc(-c7cnc8[nH]cc(C9CC9)c8c7Cl)n6)C(=O)C5)CC4)cc3C2=O)C(=O)N1 (stereo not drawn) [Example 53] | HPK1 protein (Homo sapiens) | 86 |
| CCc1c[nH]c2ncc(-c3cccc(N4CCN(CCCOC5CCN(c6ccc7c(c6)C(=O)N(C6CCC(=O)NC6=O)C7=O)CC5)CC4=O)c3)c(Cl)c12 (stereo not drawn) [Example 35] | HPK1 protein (Homo sapiens) | 90 |
| O=C1CCC(N2Cc3cc(C4CCN(CCCN5CCN(c6cccc(-c7cnc8[nH]cc(C9CC9)c8c7Cl)c6)C(=O)C5)CC4)ccc3C2=O)C(=O)N1 (stereo not drawn) [Example 54] | HPK1 protein (Homo sapiens) | 83 |
| O=C1CCC(N2C(=O)c3cc(F)c(N4CCC5(CC4)CN(CCN4CCN(c6cccc(-c7cnc8[nH]cc(C9CC9)c8c7Cl)c6)C(=O)C4)C5)cc3C2=O)C(=O)N1 (stereo not drawn) [Example 52] | HPK1 protein (Homo sapiens) | 31 |
| O=C1CCC(N2Cc3cc(C4=CC5CCC(C4)N5CCCN4CCN(c5cccc(-c6cnc7[nH]cc(C8CC8)c7c6Cl)c5)C(=O)C4)ccc3C2=O)C(=O)N1 (stereo not drawn) [Example 64] | HPK1 protein (Homo sapiens) | 70 |

Turning now to a further compound:
Record O=C1CCC(Nc2ccc(C3CCN(CCCN4CCN(c5cccc(-c6cnc7[nH]cc(C8CC8)c7c6Cl)c5)C(=O)C4)CC3)cc2)C(=O)N1 (stereo not drawn) [Example 78] , field Dmax: 90

* * *

# measured target: HPK1 protein (Homo sapiens)
# Construct: Frozen human PBMC were purchased from Shanghai OribioTech; host or cells: human PBMC
# assay name: HPK1 protein degradation in human PBMC (western blot)
# Type: cell-based
# setup conditions: 18 h incubation
Record 1.0 whenever Dmax is at 80% or higher; record 0.0 when lower.

| compound | label value |
| --- | --- |
| CCc1c[nH]c2ncc(-c3cccc(N4CCN(C(=O)COC5CCN(c6ccc7c(c6)C(=O)N(C6CCC(=O)NC6=O)C7=O)CC5)CC4=O)c3)c(Cl)c12 (centres unmarked) [Example 16] | 1.0 |
| CCc1c[nH]c2ncc(-c3cccc(N4CCN(S(=O)(=O)CCCN5CCN(c6ccc7c(c6)C(=O)N(C6CCC(=O)NC6=O)C7=O)CC5)CC4=O)c3)c(Cl)c12 (centres unmarked) [Example 99] | 1.0 |
| O=C1CCC(N2C(=O)c3ccc(N4CCC(OCC(=O)N5CCN(c6cccc(-c7cnc8[nH]cc(C9CC9)c8c7Cl)c6)C(=O)C5)CC4)cc3C2=O)C(=O)N1 (centres unmarked) [Example 31] | 1.0 |
| CCc1c[nH]c2ncc(-c3cccc(N4CCN(S(=O)(=O)CCN5CCN(c6ccc7c(c6)C(=O)N(C6CCC(=O)NC6=O)C7=O)CC5)CC4=O)c3)c(Cl)c12 (centres unmarked) [Example 100] | 1.0 |
| O=C1CCC(N2C(=O)c3ccc(N4CCC(OCC(=O)N5CCN(c6cccc(-c7cnc8[nH]cc(CC(F)F)c8c7Cl)c6)C(=O)C5)CC4)cc3C2=O)C(=O)N1 (centres unmarked) [Example 36] | 1.0 |

Query: Dear colleague, could you confirm whether CCc1c[nH]c2ncc(-c3cccc(N4CCN(C(=O)CCN5CCN(c6ccc7c(c6)C(=O)N(C6CCC(=O)NC6=O)C7=O)CC5)CC4=O)c3)c(Cl)c12 (centres unmarked) [Example 21] has Dmax at or above 80%?
Reply: 0.0

Query: Given the entry CN(CC(=O)N1CCN(c2cccc(-c3cnc4[nH]cc(C5CC5)c4c3Cl)c2)C(=O)C1)C1CCN(c2cc3c(cc2F)C(=O)N(C2CCC(=O)NC2=O)C3=O)CC1 (centres unmarked) [Example 42] , answer whether its Dmax meets or surpasses 80%.
Reply: 0.0

Query: Please tell me: is the compound O=C1CCC(N2C(=O)c3cc(F)c(N4CCC(OCCCN5CCN(c6cccc(-c7cnc8[nH]cc(CC(F)F)c8c7Cl)c6)C(=O)C5)CC4)cc3C2=O)C(=O)N1 (centres unmarked) [Example 39] at or over 80% in terms of Dmax?
Reply: 1.0

Query: Tell me whether Dmax is at least 80% here: O=C1CCC(N2Cc3cc(N4CCN(CCCN5CCN(c6cccc(-c7cnc8[nH]cc(C9CC9)c8c7Cl)c6)C(=O)C5)CC4)ccc3C2=O)C(=O)N1 (centres unmarked) [Example 63]
Reply: 1.0
